- system: human TLR8 (Homo sapiens, UniProt Q9NR97)
- Sequence (Q9NR97 27-1041): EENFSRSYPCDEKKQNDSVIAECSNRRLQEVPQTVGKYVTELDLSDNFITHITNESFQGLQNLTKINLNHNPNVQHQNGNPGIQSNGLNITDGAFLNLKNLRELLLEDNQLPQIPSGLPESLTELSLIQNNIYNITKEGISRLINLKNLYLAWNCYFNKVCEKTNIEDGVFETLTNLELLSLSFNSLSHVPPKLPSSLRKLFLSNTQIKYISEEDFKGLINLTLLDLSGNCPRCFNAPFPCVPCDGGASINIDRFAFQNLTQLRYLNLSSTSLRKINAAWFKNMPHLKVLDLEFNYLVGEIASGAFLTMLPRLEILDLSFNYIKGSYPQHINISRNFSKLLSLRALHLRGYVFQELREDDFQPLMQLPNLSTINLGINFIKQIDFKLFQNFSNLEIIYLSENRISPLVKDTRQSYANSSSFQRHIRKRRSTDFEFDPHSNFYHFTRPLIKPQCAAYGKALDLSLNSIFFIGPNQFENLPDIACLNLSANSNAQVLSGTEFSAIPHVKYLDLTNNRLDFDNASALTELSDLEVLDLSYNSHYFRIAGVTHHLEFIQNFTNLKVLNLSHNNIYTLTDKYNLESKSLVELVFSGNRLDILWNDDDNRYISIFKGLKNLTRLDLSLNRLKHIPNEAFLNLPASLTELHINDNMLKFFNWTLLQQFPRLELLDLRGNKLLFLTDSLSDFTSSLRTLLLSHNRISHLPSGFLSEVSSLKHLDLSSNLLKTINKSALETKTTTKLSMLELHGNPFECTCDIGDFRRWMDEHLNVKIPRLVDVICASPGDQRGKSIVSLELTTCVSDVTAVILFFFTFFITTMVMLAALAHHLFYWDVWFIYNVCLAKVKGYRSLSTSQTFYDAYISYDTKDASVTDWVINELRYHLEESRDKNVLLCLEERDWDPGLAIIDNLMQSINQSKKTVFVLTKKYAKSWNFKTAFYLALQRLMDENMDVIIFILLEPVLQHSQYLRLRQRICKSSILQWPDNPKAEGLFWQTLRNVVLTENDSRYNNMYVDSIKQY
- test-name: TLR8 inhibition reporter assay (HEK-Blue SEAP reporter)
- test-parameters: HEK-Blue cells overexpressing human TLR8; R848 15.9 μM; 22 hour incubation
pIC50: −log10 of the molar value.
experimental-readout: pIC50

Use the examples below as a reference point.
item-smiles: COc1ccc(-c2[nH]c3ccc(NC(=O)[C@@H](N)C4CCCCC4)cc3c2C(C)C)cc1OC
system: human TLR8 (Homo sapiens, UniProt Q9NR97)
test-result: 6.71

item-smiles: CCc1c(-c2ccc(OC)c(OC)c2)[nH]c2ccc(N3CCC(C4CCNCC4)CC3)cc12
system: human TLR8 (Homo sapiens, UniProt Q9NR97)
test-result: 6.88

[P] COc1ccc(-c2[nH]c3ccc(N4CCC(OC5CCN(C)CC5)CC4)cc3c2C(C)C)cc1OC
[Q] CC(C)c1c(-c2ccnc3[nH]ncc23)[nH]c2ccc(NC(=O)[C@@H]3CCNC3)cc12
stdin: Which record shows the lower pIC50: the first, P , or the second, Q ? Indicate which entry you chose by stating its label.
stdout: P
(P: 6.78, Q: 7.15)

The reported measurements were obtained from patent US11306092B2.
